Numbers sourced from patent US8512703B2.

# Target Or System: T1, Class I HLA molecule A*0201 in recombinant form
# T1 construct: also called HLA-A*0201
# T1 MHC heavy: not shown
# Method Summary: iTopia ELISA-like peptide-HLA binding
Metric Name: Bond results (%)
Answers are plain numbers, in %.

{"columns": ["Binder", "Bond results, %"],
 "data": [
  ["FTLTISRLE [VK3-20 peptide No 72 FTLTISRLE]", 22]
]}

For each of the binders below, note its Bond results.
1. QYGSSPRTF [VK3-20 peptide No 91 QYGSSPRTF]
2. TLSCRASQI (also called P20) [VK3-20 peptide No 20 TLSCRASQI]
3. VSSSYLAWY [VK3-20 peptide No 29 VSSSYLAWY]

1: 0; 2: 28; 3: 4
